Tested on: DUBs (decomposition of high molecular weight ubiquitinated proteins, HMW-Ub) in HEK 293T cell lysates
Format: biochemical
assay context: HEK 293T HA-Ub lysates, 37 °C
readout kind: stabilization of the HMW-Ub pool (in words)

INSERT INTO results (smiles_string, result) VALUES
  ('NCc1ccc(NC(=O)Oc2ccccc2)cc1', 'did not stabilize'),
  ('NCc1ccc(OC(=O)Nc2ccccc2)cc1', 'did not stabilize');
